Target: human 5-HT4E receptor (Homo sapiens, UniProt Q13639)
Sequence (Q13639 1-378 isoform Q13639-5): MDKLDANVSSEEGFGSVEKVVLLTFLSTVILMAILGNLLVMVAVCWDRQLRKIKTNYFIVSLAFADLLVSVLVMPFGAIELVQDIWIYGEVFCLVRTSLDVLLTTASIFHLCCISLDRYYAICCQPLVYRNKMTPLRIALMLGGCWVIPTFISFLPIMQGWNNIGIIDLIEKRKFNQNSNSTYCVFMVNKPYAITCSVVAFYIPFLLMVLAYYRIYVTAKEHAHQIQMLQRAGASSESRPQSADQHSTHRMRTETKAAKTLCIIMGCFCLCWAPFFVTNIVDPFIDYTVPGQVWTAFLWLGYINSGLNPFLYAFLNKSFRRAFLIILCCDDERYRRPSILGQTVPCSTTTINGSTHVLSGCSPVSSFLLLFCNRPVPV
Where a name gives a salt, the structure may show the parent alone.

compound	system_name	IC50 (nM)
CN1C[C@H](C(=O)N[C@]2(C)O[C@@]3(O)[C@@H]4CCCN4C(=O)[C@H](Cc4ccccc4)N3C2=O)C[C@@H]2c3cccc4[nH]cc(c34)C[C@H]21 [DHE, Dihydroergotamine mesylate]	human 5-HT4E receptor (Homo sapiens, UniProt Q13639)	230

====

Biological target: D5 (Homo sapiens, UniProt P21918)
Sequence (P21918 whole entry): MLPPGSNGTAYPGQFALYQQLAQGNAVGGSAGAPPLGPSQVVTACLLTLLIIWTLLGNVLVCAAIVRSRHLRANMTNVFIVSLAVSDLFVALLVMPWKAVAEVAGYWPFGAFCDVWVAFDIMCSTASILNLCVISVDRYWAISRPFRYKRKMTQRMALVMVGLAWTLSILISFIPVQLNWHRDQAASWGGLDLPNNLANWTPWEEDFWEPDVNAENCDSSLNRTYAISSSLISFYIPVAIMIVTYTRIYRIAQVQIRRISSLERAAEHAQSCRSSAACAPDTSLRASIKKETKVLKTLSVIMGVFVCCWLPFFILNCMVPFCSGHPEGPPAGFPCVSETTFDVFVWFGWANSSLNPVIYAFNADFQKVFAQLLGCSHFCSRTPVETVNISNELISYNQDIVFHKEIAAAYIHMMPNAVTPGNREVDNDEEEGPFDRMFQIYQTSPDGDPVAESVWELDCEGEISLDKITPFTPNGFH
pIC50: −log10 of the molar value. Counter-ions that a name gives are not always drawn.

compound	pIC50
CN1C[C@H](C(=O)N[C@]2(C)O[C@@]3(O)[C@@H]4CCCN4C(=O)[C@H](Cc4ccccc4)N3C2=O)C[C@@H]2c3cccc4[nH]cc(c34)C[C@H]21 [DHE, Dihydroergotamine mesylate]	6.43

====

Molecular target: 5-HT1B (Homo sapiens, UniProt P28222)
Sequence (P28222 whole entry): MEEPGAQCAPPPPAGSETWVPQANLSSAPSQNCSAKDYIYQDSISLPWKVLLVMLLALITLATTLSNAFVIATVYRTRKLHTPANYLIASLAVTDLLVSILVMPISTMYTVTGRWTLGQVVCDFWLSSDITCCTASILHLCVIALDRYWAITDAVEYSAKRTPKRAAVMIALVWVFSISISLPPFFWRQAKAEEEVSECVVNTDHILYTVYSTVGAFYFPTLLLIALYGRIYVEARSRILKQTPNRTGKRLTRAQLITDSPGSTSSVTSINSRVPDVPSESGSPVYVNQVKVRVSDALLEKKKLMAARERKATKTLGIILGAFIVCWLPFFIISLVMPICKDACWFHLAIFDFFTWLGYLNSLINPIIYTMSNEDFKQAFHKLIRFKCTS
pIC50: −log10 of the molar value. Counter-ions that a name gives are not always drawn.

compound	pIC50
CN1C[C@H](C(=O)N[C@]2(C)O[C@@]3(O)[C@@H]4CCCN4C(=O)[C@H](Cc4ccccc4)N3C2=O)C[C@@H]2c3cccc4[nH]cc(c34)C[C@H]21 [DHE, Dihydroergotamine mesylate]	9.24
